Target: von Hippel-Lindau disease tumor suppressor (Homo sapiens, UniProt P40337)
Sequence (P40337 whole entry): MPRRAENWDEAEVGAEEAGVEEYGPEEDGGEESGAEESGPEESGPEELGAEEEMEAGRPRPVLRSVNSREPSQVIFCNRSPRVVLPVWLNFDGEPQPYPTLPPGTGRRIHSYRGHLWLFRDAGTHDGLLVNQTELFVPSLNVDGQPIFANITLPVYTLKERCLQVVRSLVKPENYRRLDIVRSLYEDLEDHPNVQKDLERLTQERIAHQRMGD
pKi: −log10 of the molar value.
result-type: pKi

> print(dat)
                    structure.smiles.string  assay.result
1  Cc1ncsc1-c1ccc(CNC(=O)[C@@H]2C[C@@H](O)CN2C(=O)c2cccc(N)c2C)cc1          6.17

====

Molecular target: Bromodomain-containing protein 4 (Homo sapiens, UniProt O60885)
Experiment: Induction of HiBit-tagged BRD4 degradation in human A549 cells incubated for 4 to 24 hrs by luminescence based Nano-Glo assay
pEC50: −log10 of the molar value.
result-type: pEC50

structure-smiles-string	test-system	assay-result
Cc1cc([C@@H](C(=O)N2C[C@@H](O)C[C@@H]2C(=O)N[C@H](C)c2ccc(-c3scnc3C#CCOCCOCCOCCNC(=O)C[C@@H]3N=C(c4ccc(Cl)cc4)c4c(sc(C)c4C)-n4c(C)nnc43)cc2)C(C)C)on1	Bromodomain-containing protein 4 (Homo sapiens, UniProt O60885)	> 7.30
